System: SNB-19
Measurement notes: NCI tumour cell line growth inhibition, 48 h
Calls of active or inactive are those of the source. Rule as the data show it: active = GI50 up to about 1.1 µM and inactive = higher. Residues, ends and D or L forms follow the SMILES beside them. *: point of attachment. Cbz = O=C(OCc1ccccc1)*
Readout name: GI50

O=C1/C(=N\NC(=S)NC2CCCCC2)c2cc([N+](=O)[O-])ccc2N1CN1CCOCC1; 7.87 µM (inactive)

Quick one: give me GI50 for each item below, same order please.
1. N=C(N)N/N=C/c1c(-c2ccccc2)nc2ccn3c(/C=N/N=C(N)N)c(-c4ccccc4)nc3n12
2. CC1=NC(=Cc2ccc([N+](=O)[O-])cc2)C(=O)N1n1c(-c2ccccc2)nc2ccccc2c1=O
3. CCOC(=O)CCC(NC(=O)OCc1ccccc1)C(=O)NC(CCC(=O)OCC)C(=O)OCC (stereo unspecified) (Cbz-Glu(OEt)-Glu(OEt)-OEt; configuration not given here)
4. COc1ccc(/C(=N\NC(=O)C(N)=O)C(c2ccc(OC)cc2)C2(O)C(=O)Nc3c(Cl)cccc32)cc1 (stereo unspecified)

1. 20.3 µM (inactive)
2. 55.2 µM (inactive)
3. > 100 µM (inactive)
4. > 100 µM (inactive)
